Provenance of the data: ChEMBL document CHEMBL1151904

Molecular target: Chitinase B (Serratia marcescens)
Sequence (P11797 whole entry): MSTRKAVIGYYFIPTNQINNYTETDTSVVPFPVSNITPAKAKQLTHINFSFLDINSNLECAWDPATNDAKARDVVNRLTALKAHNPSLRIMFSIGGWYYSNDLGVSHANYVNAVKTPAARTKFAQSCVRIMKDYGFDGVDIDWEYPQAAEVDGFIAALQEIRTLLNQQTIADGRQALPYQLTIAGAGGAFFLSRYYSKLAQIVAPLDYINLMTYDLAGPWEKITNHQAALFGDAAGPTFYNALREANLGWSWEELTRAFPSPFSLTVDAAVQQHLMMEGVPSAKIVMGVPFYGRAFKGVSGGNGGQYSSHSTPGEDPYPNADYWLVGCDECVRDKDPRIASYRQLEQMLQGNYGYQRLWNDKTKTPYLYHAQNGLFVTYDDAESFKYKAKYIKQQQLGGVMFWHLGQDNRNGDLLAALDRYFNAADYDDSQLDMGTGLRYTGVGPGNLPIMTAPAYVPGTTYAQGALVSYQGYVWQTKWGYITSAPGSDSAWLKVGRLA
This section presents compounds with their documented IC50 values.
Supply the numeric figure in µM, leaving out any unit text.

| Smiles string | Unit abbrev | IC50 |
| --- | --- | --- |
| CNC(=O)NC(N)=NCCC[C@@H]1NC(=O)[C@@H](CC(C)C)NC(=O)C[C@@H](C(=O)N2CCC(Cc3ccccc3)CC2)NC(=O)C[C@@H](C(=O)O)NC(=O)[C@H](Cc2ccccc2)N(C)C1=O | µM | 0.23 |
| CNC(=O)NC(N)=NCCC[C@@H]1NC(=O)[C@@H](Cc2ccccc2)NC(=O)C[C@@H](C(=O)O)NC(=O)C[C@@H](C(=O)O)NC(=O)[C@H](Cc2ccccc2)N(C)C1=O | µM | 9.9 |
| CNC(=O)NC(N)=NCCC[C@@H]1NC(=O)[C@@H](C)NC(=O)C[C@@H](C(=O)N2CCC(Cc3ccccc3)CC2)NC(=O)C[C@@H](C(=O)O)NC(=O)[C@H](Cc2ccccc2)N(C)C1=O | µM | 1.3 |
| CNC(=O)NC(N)=NCCC[C@@H]1NC(=O)[C@@H](C(C)C)NC(=O)C[C@@H](C(=O)O)NC(=O)C[C@@H](C(=O)O)NC(=O)[C@H](Cc2ccccc2)N(C)C1=O | µM | 6.1 |
| CNC(=O)NC(=N)NCCC[C@@H]1NC(=O)[C@@H](Cc2c[nH]c3ccccc23)NC(=O)C[C@@H](C(=O)O)NC(=O)C[C@@H](C(=O)O)NC(=O)[C@H](Cc2ccccc2)N(C)C1=O | µM | 4.5 |
| CNC(=O)NC(=N)NCCC[C@@H]1NC(=O)[C@@H](CCSC)NC(=O)C[C@@H](C(=O)O)NC(=O)C[C@@H](C(=O)O)NC(=O)[C@H](Cc2ccccc2)N(C)C1=O | µM | 10 |

Query :: Checklist item: IC50 tested on Chitinase B (Serratia marcescens), entry CNC(=O)NC(N)=NCCC[C@@H]1NC(=O)[C@@H](CC(C)C)NC(=O)C[C@@H](C(=O)O)NC(=O)C[C@@H](C(=O)O)NC(=O)[C@H](Cc2ccccc2)N(C)C1=O , value?
Result :: 1.9
